This section presents binders with their documented Decreased fold of binding to ligand after Conjugating with S48 values.
- assay-target: T1, IL-10R1-Fc (UniProt Q13651 22-235, limits assumed)
- T1 sequence (looked up): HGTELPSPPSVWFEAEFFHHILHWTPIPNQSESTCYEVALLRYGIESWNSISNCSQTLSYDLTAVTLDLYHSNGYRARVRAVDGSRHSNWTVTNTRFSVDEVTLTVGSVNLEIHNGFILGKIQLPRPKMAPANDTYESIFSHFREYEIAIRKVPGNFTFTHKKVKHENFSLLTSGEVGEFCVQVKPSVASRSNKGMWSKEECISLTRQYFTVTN
- test: ELISA, IL-10R1-Fc coated
The response must be a number in fold with no trailing unit.

Answered cases to consult:
# binder, display-unit, meas-value
records = [
    ("IL-10 Leu19Cys-S48 (ligand, human, UniProt P22301 19-178, looked up, S48 on Cys 19, mature) SPGQGTQSENSCTHFPGNCPNMLRDLRDAFSRVKTFFQMKDQLDNLLLKESLLEDFKGYLGCQALSEMIQFYLEEVMPQAENQDPDIKAHVNSLGENLKTLRLRLRRCHRFLPCENKSKAVEQVKNAFNKLQEKGIYKAMSEFDIFINYIEAYMTMKIRN", "fold", 8),
    ("IL-10 Arg104Cys-S48 (ligand, human, UniProt P22301 19-178, looked up, S48 on Cys 104, mature) SPGQGTQSENSCTHFPGNLPNMLRDLRDAFSRVKTFFQMKDQLDNLLLKESLLEDFKGYLGCQALSEMIQFYLEEVMPQAENQDPDIKAHVNSLGENLKTLRLCLRRCHRFLPCENKSKAVEQVKNAFNKLQEKGIYKAMSEFDIFINYIEAYMTMKIRN", "fold", 3),
]

Field: next binder
Look at this binder and give its reported Decreased fold of binding to ligand after Conjugating with S48. IL-10 Val91Cys-S48 (ligand, human, UniProt P22301 19-178, looked up, S48 on Cys 91, mature) SPGQGTQSENSCTHFPGNLPNMLRDLRDAFSRVKTFFQMKDQLDNLLLKESLLEDFKGYLGCQALSEMIQFYLEEVMPQAENQDPDIKAHCNSLGENLKTLRLRLRRCHRFLPCENKSKAVEQVKNAFNKLQEKGIYKAMSEFDIFINYIEAYMTMKIRN
3
